growth values, listed per item
Tested on: HCT-116 colon
Assay: NCI-60 one-dose screen, 48 h (100 = growth as untreated, 0 = no growth, -100 = all killed)
Conditions: 10 µM unless noted
About 83,000 compounds went through this panel and 20% of them were active in at least one assay; those are over-represented in the sample as a whole. Activity calls are given as the source filed them. The calls were made as follows: active = growth percent below 10; inactive = the rest.

Would you please look over these solved cases?
MOLECULE: CC(C)Sc1nc(NN)c(C#N)c(-c2ccccc2)n1
SYSTEM_UNDER_TEST: HCT-116 colon
MEASURED_ENDPOINT: growth
RESULT: 87.9% (inactive)

MOLECULE: CC1(C)CN(Cc2ccccc2)CCN1Cc1ccccc1
SYSTEM_UNDER_TEST: HCT-116 colon
MEASURED_ENDPOINT: growth
RESULT: 101% (inactive)

MOLECULE: NC(=O)c1cccc(-c2cc(C(N)=O)ccc2Cl)c1
SYSTEM_UNDER_TEST: HCT-116 colon
MEASURED_ENDPOINT: growth
RESULT: 25.4% (inactive)

MOLECULE: C=C(C)[C@@H]1CC[C@]2(C(=O)NCC(=O)OC)CC[C@]3(C)[C@H](CC[C@@H]4[C@@]5(C)Cc6c([nH]c7ccccc67)C(C)(C)[C@@H]5CC[C@]43C)[C@@H]12
SYSTEM_UNDER_TEST: HCT-116 colon
MEASURED_ENDPOINT: growth
RESULT: 42% (inactive)

MOLECULE: C[C@H]1[C@H](C)CC[C@]2(CO)CC[C@]3(C)C(=CC[C@@H]4[C@@]5(C)Cc6c([nH]c7ccccc67)C(C)(C)[C@@H]5CC[C@]43C)[C@H]12
SYSTEM_UNDER_TEST: HCT-116 colon
MEASURED_ENDPOINT: growth
RESULT: 61.5% (inactive)

MOLECULE: COc1ccc(Nc2nc(N)nc3c2CCc2occc2-3)cc1
SYSTEM_UNDER_TEST: HCT-116 colon
MEASURED_ENDPOINT: growth
RESULT: 90% (inactive)

Value lookup for growth; key = Clc1ccc(C2CC(c3cccc(Nc4ccncc4)c3)=NN2c2ccccc2)cc1 (stereo not given)
-79.6% (active)

Next entry: CCCCCCCCCCCC(=O)C(CCCCCCCCCC)C(=O)Nc1ccccc1 (stereo not given)
93.8% (inactive)

Next entry: C/C(=C(/c1ccccc1)c1ccc(OCC(O)CN2CCOCC2)cc1)c1ccccc1 (stereo not given)
46.3% (inactive)

Next entry: `COc1cccc(-c2nc3occn3c2-c2ccnc(NCCCNS(=O)(=O)c3cccc(F)c3)n2)c1`
82% (inactive)

* * *

System: OVCAR-5 ovarian
Assay: NCI-60 one-dose screen, 48 h
Conditions: 10 µM unless noted
The panel holds about 83,000 compounds, 20% with a hit somewhere; the sample as a whole holds those more often. Active and inactive are the calls of the source. Rule for the calls: active = growth percent below 10; inactive = the rest.
Select the matching outcome among class 1 (active), class 0 (inactive)

COMPOUND: CN1C2CCC1CN(c1cnc(C(=O)Nc3cc(F)cc4cccnc34)cn1)C2
GROUP: class 0
--
COMPOUND: COc1ccc(C(O)c2cc3c(N)c(C(=O)Nc4ccccc4)sc3nc2C)cc1 (stereo not given)
GROUP: class 0

I would be grateful if you could indicate the recorded call for `O=C(Nc1ccc(Cl)cc1)Nc1ccc(Cl)c(Cl)c1` .
class 0

Next entry: O=c1[nH]c2c(s1)CCCC2CN1CCCCC1 (stereo not given)
class 0
